# inhibition values compiled below
Test system: Hepatitis C virus NS3 helicase
Experiment: HCV NS3 helicase inhibitors, primary screen, biochemical, fluorescence polarization, LOPAC1280 library (AID 687035)
Conditions: Purified HCV NS3 helicase, Cy5-dT15 ssDNA binding fluorescence polarization; stronger effect = higher value; concentration not given here
parameter: inhibition (%)

INSERT INTO results (molecule, assay_target, parameter, value_reported) VALUES
  ('NC[C@@H]1O[C@H](C23CC4CC(CC(C4)C2)C3)Cc2c1ccc(O)c2O', 'Hepatitis C virus NS3 helicase', 'inhibition', -3),
  ('CC#CCOC(=O)c1c(C)nc2sc3c(c2c1N)CCC(O)C3 (stereo unspecified)', 'Hepatitis C virus NS3 helicase', 'inhibition', -3),
  ('Nc1ncnc2c1ncn2C1CCCO1 (stereo unspecified)', 'Hepatitis C virus NS3 helicase', 'inhibition', -1),
  ('Cn1cc(C2=C(c3ccc(Cl)cc3Cl)C(=O)NC2=O)c2ccccc21', 'Hepatitis C virus NS3 helicase', 'inhibition', -3),
  ('O=Nc1c(-c2c(O)[nH]c3ccccc23)[nH]c2ccccc12', 'Hepatitis C virus NS3 helicase', 'inhibition', 0),
  ('CC(/C=C/c1cccc(Oc2ccc(F)cc2)c1)N(O)C(N)=O (stereo unspecified)', 'Hepatitis C virus NS3 helicase', 'inhibition', 0);

----------
Tested on: F380Y/beta4
Assay: modulators of BK channel variants, profiling panel, selectivity assay, cell-based, U2OS BacMam, thallium flux, beta subunits (AID 1259406);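 note: initial slope of Thallos dye fluorescence rise after thallium is added; log ratio against the mean of 0.3% DMSO vehicle wells on the same plate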
Conditions: at 30 µM
The source made the active and inactive calls.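 Rule for the calls: active = thallium flux through the channel raised or lowered by more than 3 SD from vehicle-only wells, actives on both sides; inactive = the rest.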
Possible outcomes: y for active, n for inactive

INSERT INTO assay_data (compound, class_assignment) VALUES
  ('C[C@]12C=CC(=O)C=C1CC[C@@H]1[C@@H]2[C@@H](O)C[C@@]2(C)[C@H]1CC[C@]2(O)C(=O)COC(=O)CCC(=O)O', 'n'),
  ('CC(=O)c1sc(SCc2ccc(Cl)cc2)c2c1CC(C)(C)CC2=O', 'y'),
  ('Cc1ccc(C)n1N(C)c1ccc([N+](=O)[O-])cn1', 'n'),
  ('COC(=O)CC1(C(=O)OC)Oc2ccc(Br)cc2C(=O)N1c1cccc(Cl)c1Cl (stereo not given)', 'y'),
  ('CCC[C@@H]1C[C@@H](C(=O)N[C@H]([C@@H](C)O)[C@H]2O[C@H](SC)[C@H](O)[C@@H](O)C2O)N(C)C1 (stereo not given in full)', 'n'),
  ('C[C@@H](c1ncncc1F)[C@](O)(Cn1cncn1)c1ccc(F)cc1F', 'n'),
  ('C=CC1=C(C(=O)O)N2C(=O)[C@@H](NC(=O)C(=NO)c3csc(N)n3)[C@H]2SC1', 'n'),
  ('CC1(C)SC2C(NC(=O)C(N)c3ccccc3)C(=O)N2C1C(=O)O (stereo not given)', 'n'),
  ('Cc1cc(Sc2nnc(N=CN(C)C)s2)c2ccccc2n1', 'n'),
  ('O=c1[nH]cnc2scc(-c3cccs3)c12', 'n');

----------
Test: sensitizers of A549 cells to miR-34 induction, primary screen, imaging, A549 dox-inducible miR-34, nuclei and caspase counts (AID 1347080)
Settings: A549 miR-34 inducible, Hoechst nuclei count, 48 h; measured here: total cells without miR-34 induction
cell count vs 10000: at or above is satisfied, below is not satisfied.

INSERT INTO results (molecule, class_assignment) VALUES
  ('O=C1C2CC3CC1CC(O)(C3)C2', 'not satisfied'),
  ('C[C@H](CCC(=O)O)[C@H]1CCC2C3C(CC[C@@]21C)[C@@]1(C)CC[C@@H](O)C[C@H]1C[C@@H]3O (some centres undefined)', 'satisfied'),
  ('CC1(C)O[C@@H]2CC3C4CCC5=CC(=O)C=C[C@]5(C)C4[C@@H](O)C[C@]3(C)[C@]2(C(=O)CO)O1 (some centres undefined)', 'not satisfied'),
  ('CC12CCC(=O)C=C1CCC1C2[C@@H](O)CC2(C)C1CC[C@]2(O)C(=O)COP(=O)(O)O (some centres undefined)', 'not satisfied'),
  ('CC1=C(C(=O)O)N2C(=O)[C@@H](NC(=O)[C@H](N)C3=CCC=CC3)C2SC1 (some centres undefined)', 'satisfied'),
  ('NCC[C@@H](O)C(=O)N[C@@H]1C[C@H](N)[C@@H](O[C@H]2O[C@H](CN)[C@@H](O)[C@H](O)[C@H]2O)[C@H](O)[C@H]1O[C@H]1O[C@H](CO)[C@@H](O)[C@H](N)C1O (some centres undefined)', 'satisfied'),
  ('C[C@]12CCC(=O)C=C1CCC1C2[C@@H](O)C[C@@]2(C)C1CC[C@]2(O)C(=O)COC(=O)CCC(=O)O (some centres undefined)', 'not satisfied');

----------
Assay: human astrocyte viability loss, single and combined drugs, cytotoxicity control for chromothriptic childhood tumor combination screen, cell-based, BGB or cisplatin IC20 combos (AID 1671460);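 note: cells exposed to compounds for 96 hours before viability readout; 0% = vehicle and 100% = killing control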
Settings: Human astrocytes, drug combinations, at 0.5 µM
Activity calls are given as the source filed them. Rule as the data show it: active = inhibition above about 80%; inactive = the rest.
Outcome codes: t for active, f for inactive

INSERT INTO assay_data (compound, class_assignment) VALUES
  ('CO[C@H]1/C=C/O[C@@]2(C)Oc3c(C)c(O)c4c(O)c(c(C=NN5CCN(C)CC5)c(O)c4c3C2=O)NC(=O)/C(C)=C\C=C\[C@H](C)[C@H](O)[C@@H](C)[C@@H](O)[C@@H](C)[C@H](OC(C)=O)[C@@H]1C', 'f'),
  ('Cc1c(-c2cnccn2)ssc1=S', 'f'),
  ('CCc1c2c(nc3ccc(O)cc13)-c1cc3c(c(=O)n1C2)COC(=O)[C@]3(O)CC', 't'),
  ('NC(=O)c1ncn(C2OC(CO)C(O)C2O)n1 (centres undefined)', 'f');

----------
Assay: circadian clock period modulators, cell-based, LOPAC library, luminescence reporter (AID 2774);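 note: values are relative to mean of DMSO wells on each plate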
Settings: circadian reporter cells, at 7 µM, actives lie on both sides
Activity calls are given as the source filed them. The rule behind the calls is not given here.
Entries and their measured period change follow.
parameter: period change

INSERT INTO results (compound, parameter, value_reported) VALUES
  ('Nc1nc2ccc(Cl)cc2c2nc(-c3ccco3)nn12', 'period change', '0.275 h (inactive)'),
  ('COc1ccc2c(c1)c(CC(=O)N1CCOCC1)c(C)n2C(=O)c1ccc(Cl)cc1', 'period change', '-0.115 h (inactive)'),
  ('COCc1nc2c([nH]1)c(=O)n(C)c(=O)n2CC(C)C', 'period change', '-0.19 h (inactive)'),
  ('C/C=C/CC(C)C(O)C1C(=O)NC(CC)C(=O)N(C)CC(=O)N(C)C(CC(C)C)C(=O)NC(C(C)C)C(=O)N(C)C(CC(C)C)C(=O)NC(C)C(=O)NC(C)C(=O)N(C)C(CC(C)C)C(=O)N(C)C(CC(C)C)C(=O)N(C)C(C(C)C)C(=O)N1C (configuration not stated)', 'period change', '-0.005 h (inactive)'),
  ('N[C@@H](CS(=O)O)C(=O)O', 'period change', '0.04 h (inactive)'),
  ('CC(C)NCC(O)c1ccc(NS(C)(=O)=O)cc1 (configuration not stated)', 'period change', '-0.07 h (inactive)'),
  ('Oc1cc2c(cc1O)CN(C(=S)NCCc1ccc(Cl)cc1)CCC2', 'period change', '0.035 h (inactive)'),
  ('N=C(N)SCCc1cnc[nH]1', 'period change', '0.045 h (inactive)'),
  ('O=C(O)c1cc(=O)c2c(Cl)cc(Cl)cc2[nH]1', 'period change', '-0.065 h (inactive)'),
  ('CCC(C)N(C)C(=O)c1cc2ccccc2c(-c2ccccc2Cl)n1 (configuration not stated)', 'period change', '0.03 h (inactive)'),
  ('CC(=O)N1CCN(c2ccc(OC[C@H]3CO[C@](Cn4ccnc4)(c4ccc(Cl)cc4Cl)O3)cc2)CC1', 'period change', '-0.195 h (inactive)'),
  ('O=C(O)c1ccccc1Nc1ccccc1', 'period change', '-0.04 h (inactive)');

----------
Assay: differential killing of epithelial or mesenchymal cells, primary screen, imaging, PC-3E GFP, TEM4-18 mCherry, co-culture (AID 1345086);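 note: cells exposed to compound for 72 h before imaging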
Settings: imaging cell counts, measured here: mesenchymal TEM4-18 mCherry cell survival, at 1 µM
parameter: normalised cell number

INSERT INTO results (compound, parameter, value_reported) VALUES
  ('C=C[C@@H](C1=CC(=O)C(OC)=C(OC)C1=O)c1ccccc1', 'normalised cell number', 1.04),
  ('CC(=O)Nc1cc2ccccc2oc1=O', 'normalised cell number', 0.95),
  ('OC[C@H]1O[C@@](CO)(O[C@@H]2O[C@H](CO)[C@@H](O)[C@H](O)[C@H]2O)[C@@H](O[C@@H]2O[C@H](CO)[C@@H](O)[C@H](O)[C@H]2O)[C@@H]1O', 'normalised cell number', 1.01),
  ('COc1ccc(-c2oc3cc(OC)c(OC)c(OC)c3c(=O)c2OC)cc1', 'normalised cell number', 1.05),
  ('CN1CCN(C(c2ccccc2)c2ccc(Cl)cc2)CC1 (stereo not given)', 'normalised cell number', 1.26);
